Each entry below carries its recorded melting point.

Known melting point results, listed for orientation:
{"columns": ["compound", "melting point"],
 "data": [
  ["Cn1c2ccc(Cl)cc2c2c(CBr)nn(-c3ccccc3)c(=O)c21", "253 to 254 °C"],
  ["Cc1nc2cc(C(=O)Nc3ccccc3)ccc2o1", "138 to 139 °C"],
  ["CCCCCCCCCCCCCCCCN(CC(O)CO)C(=O)CCCCC (stereo unspecified)", "38.8 °C"]
]}

We next turn to a different compound, shown below.
[ask] Could you share which melting point value was measured for `CSc1nnc(C(F)F)s1` ?
[reply] 23 °C

====

assay_metric: melting point

[ask] What does the data say about its melting point? Entry: `COc1ccc(N(C)CC2CCOCC2)cc1N`
[reply] 97 to 99 °C

[ask] One more compound: `COC(=O)c1nc(Cl)c(N2CCCC2)nc1N`
[reply] 245 to 248 °C

[ask] Consider next the compound NC(=O)c1sc2nc(N3CCC(NCC(O)c4ccncc4)CC3)cc(C(F)(F)F)c2c1N (stereo not given) in the same way.
[reply] 217 to 220 °C

[ask] Further, for `O=[N+]([O-])c1ccccc1Nc1ccccc1O` ?
[reply] 67 to 70 °C

[ask] Note, next up: `COc1ccc(Cn2nc(-c3cccc(Cl)c3)c3ncccc3c2=O)cn1`
[reply] 145 °C

[ask] Follow-up entry: `CN(C)c1ccc(-c2n[nH]c3c2c(=O)n(-c2ccccc2)c2ncccc32)cc1`
[reply] > 300 °C

[ask] Thanks! And O=C(NCC1Cc2c(Cl)cc3c(c2O1)CCC3)OCc1ccccc1 (stereo not given) ?
[reply] 127 to 130 °C

[ask] Entry to check: O=C(Nc1c(Cl)cc(C(F)(c2cccs2)C(F)(F)F)cc1Cl)c1cccc(NC(=O)c2c(F)cc(F)cc2F)c1F (stereo not given)
[reply] 190 to 193 °C

[ask] Also check `O=C(NCCCCCNC(=O)c1ccc2c(c1)OCO2)c1ccc2c(c1)OCO2`
[reply] 158 to 160 °C

[ask] What about `COc1ccc(Oc2ccc3ccc(NC(=O)c4ccc(OC)cc4)nc3n2)cc1` ?
[reply] 163 °C

[ask] Follow-up item: `CC(=O)N(C)N(C)c1ccnc2c(NC(=O)c3c(Cl)cccc3Cl)cccc12`
[reply] 243 to 244 °C

[ask] Field entry: `COC(=O)[C@H](O[Si](C)(C)C)[C@@H](O[Si](C)(C)C)C(=O)OC`
[reply] 75 °C

[ask] Can you handle `Cc1ccc(C(=O)c2cccc(S(=O)(=O)O)n2)cc1` next?
[reply] > 300 °C

[ask] Also check `N#Cc1ccc(OCc2ccsc2)cc1F`
[reply] 63 to 65 °C

[ask] Consider next the compound CC(C)c1nc(C(C)C)c(C(C)O)c(-c2ccc(F)cc2)c1-c1ccccc1 (stereo not given) in the same way.
[reply] 155 to 157 °C

[ask] Try this compound too: `CCc1[nH]n(C2CCCC2)c2nc(Cc3ccc(OCC(=O)O)cc3)nc(=O)c1-2`
[reply] 218 to 220 °C

====

Each entry below carries its reported melting point.

Known results for molecules:
{"columns": ["molecule", "melting point"],
 "data": [
  ["CC(C)n1nc(-c2sc(NC(=O)c3ccccc3F)nc2-c2ccccc2)ccc1=O", "251 to 252 °C"],
  ["CC(C)Sc1cc(SC(C)C)c2ccc3c(SC(C)C)cc(SC(C)C)c4ccc1c2c43", "108 °C"],
  ["O=C(Nc1ccc(C(F)(F)F)cc1)N1CC(c2ccccc2)C(c2ccc(Cl)cc2)N1 (stereo not given)", "212 to 214 °C"],
  ["CCOC(=O)c1nc(C=Cc2cccc(Cl)c2)oc1C", "116 to 117 °C"]
]}

Let's switch to this molecule now.
[ask] Name the recorded melting point for `NC(=O)N1c2ccccc2C=C(Br)c2ccccc21` .
[reply] 168 to 170 °C

These data points were gathered from a melting point compilation (Tetko et al.; mined from patent text by program, amines drawn as free bases though some values may be those of a salt).
